Here, each record is paired with measured pEC50 data.
- MEASURED_ON: human somatostatin receptor subtype 2 (Homo sapiens, UniProt P30874)
- Construct: expressed in transfected cells
- Sequence (P30874 whole entry): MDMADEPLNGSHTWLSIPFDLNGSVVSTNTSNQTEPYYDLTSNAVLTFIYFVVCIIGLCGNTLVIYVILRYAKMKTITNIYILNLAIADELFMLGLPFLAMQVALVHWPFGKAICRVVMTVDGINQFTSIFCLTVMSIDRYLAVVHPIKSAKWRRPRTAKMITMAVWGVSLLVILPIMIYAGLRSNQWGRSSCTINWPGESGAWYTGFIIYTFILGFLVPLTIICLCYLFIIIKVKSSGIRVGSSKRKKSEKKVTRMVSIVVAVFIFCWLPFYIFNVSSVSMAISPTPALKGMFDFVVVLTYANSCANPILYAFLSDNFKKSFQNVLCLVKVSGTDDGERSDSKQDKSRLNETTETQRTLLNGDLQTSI
- TEST_PROTOCOL: cAMP functional assay for SSTR2 agonists
- Assay type: cell-based
- CONDITION_INFO: inhibition of cAMP activities via human SST2 receptor (SSTR2), CHO-K1 cells; read-out: EC50
pEC50: −log10 of the molar value.

Consider the following illustrative entries.
Cc1cc(F)cc(-c2cnc(N)c(-c3nc4cccc(C)c4[nH]3)c2N2CCC(N)CC2)c1 ... > 8.00
Cc1cc(F)cc(-c2cnc(N)c(-c3nc4cc(S(C)(=O)=O)ccc4[nH]3)c2N2CCC(N)CC2)c1 ... > 8.00
Cc1cc(F)cc(-c2cnc(N)c(-c3nc4cnccc4[nH]3)c2N2CCC(N)CC2)c1 ... > 8.00
N#CCOc1cc(F)c2[nH]c(-c3c(N)ncc(-c4cc(F)cc(Cl)c4)c3N3CCC(N)CC3)nc2c1 ... > 8.00
COc1cc(F)cc2nc(-c3c(N)ncc(-c4cccc(Cl)c4)c3N3CCC(N)CC3)[nH]c12 ... > 8.00
Cc1cc(F)cc(-c2cnc(N)c(-c3nc4cccc(C=NO)c4[nH]3)c2N2CCC(N)CC2)c1 ... > 8.00

Read the next record carefully.
-- ask pEC50 for Cc1cc(F)cc(-c2cnnc(-c3cc4cc(Cl)ccc4[nH]3)c2N2CCC(N)CC2)c1 ?
-- reply > 8.00

Measured values drawn from patent US11072598B2 for this set.
